# System: acute liver injury induced by carbon tetrachloride
# assay.method.text: Protective effect on acute liver injury induced by carbon tetrachloride (mice, oral): plasma GPT activity and BSP retention
# Format: in vivo, mice (ddY, male)
# recorded.conditions: 1 mg/kg, 6 h before CCl4 (0.05 ml/kg p.o.), plasma 30 min after BSP 75 mg/kg i.v.
Use Satisfied when the recorded Retained BSP is no lower than 100 µg/mL; use Not satisfied when it is lower.

Look over these answered cases.
- [O-][Cl+3]([O-])([O-])[O-].c1ccc(C[N+](Cc2ccccc2)=c2sccs2)cc1: Satisfied
- OC1CC[N+](=c2sccs2)CC1.[O-][Cl+3]([O-])([O-])[O-] (centres unmarked): Not satisfied
- C[N+](c1ccccc1)=c1sccs1.[O-][Cl+3]([O-])([O-])[O-]: Not satisfied
- C[N+](Cc1ccccc1)=c1sccs1.[O-][Cl+3]([O-])([O-])[O-]: Not satisfied
- CC1CC[N+](=c2sccs2)CC1.[O-][Cl+3]([O-])([O-])[O-] (centres unmarked): Not satisfied

# next compound below
-- ask API: above_or_equal(metric=Retained BSP, cutoff=100 µg/mL) for item CC(C)CC(C(=O)OC(C)C)[N+](C)=c1sccs1.[O-][Cl+3]([O-])([O-])[O-] (centres unmarked)
-- reply Satisfied

---

Give measured GPT activity for each item. Keep answers brief.
# System: acute liver injury induced by carbon tetrachloride
# assay.method.text: Protective effect on acute liver injury induced by carbon tetrachloride (mice, oral): plasma GPT activity and BSP retention
# Assay type: in vivo, mice (ddY, male)
# recorded.conditions: 1 mg/kg, 6 h before CCl4 (0.05 ml/kg p.o.), plasma
Numbers only, in Karmen units.

Examples with answers:
* CCOC(=O)C1CC[N+](=c2sccs2)CC1.[O-][Cl+3]([O-])([O-])[O-] (centres unmarked) | 2713
* NC(=O)C1CC[N+](=c2sccs2)CC1.[I-] (centres unmarked) | 3266
* [O-][Cl+3]([O-])([O-])[O-].c1csc(=[N+]2CCCC2)s1 | 4239
* C[N+](=c1sccs1)C1CCCCC1.[O-][Cl+3]([O-])([O-])[O-] | 4920

-- ask Suppose we examine the compound "[O-][Cl+3]([O-])([O-])[O-].c1csc(=[N+]2CCCCC2)s1" ; what GPT activity value has been reported?
-- reply 512

---

# Test system: acute liver injury induced by carbon tetrachloride
# assay.method.text: Protective effect on acute liver injury induced by carbon tetrachloride (mice, oral): plasma GPT activity and BSP retention
# Type: in vivo, mice (ddY, male)
# recorded.conditions: 1 mg/kg, 6 h before CCl4 (0.05 ml/kg p.o.), plasma
measured.attribute: GPT activity (Karmen units)
One number for each entry, in Karmen units.

Examples with answers:
* CCOC(=O)C1CCC[N+]1=c1sccs1.[O-][Cl+3]([O-])([O-])[O-] (centres unmarked) | 405
* CCOC(=O)C1CCC[N+](=c2sccs2)C1.[I-] (centres unmarked) | 2981
* C[N+](c1ccccc1)=c1sccs1.[O-][Cl+3]([O-])([O-])[O-] | 2394
* OC1CC[N+](=c2sccs2)CC1.[O-][Cl+3]([O-])([O-])[O-] (centres unmarked) | 1321
* [O-][Cl+3]([O-])([O-])[O-].c1ccc(C2CCC[N+]2=c2sccs2)cc1 (centres unmarked) | 3978
* CCOC(=O)C[N+](C)=c1sccs1.[O-][Cl+3]([O-])([O-])[O-] | 3280

Field: GPT activity. Fill in for each record below.
1. CCOC(=O)C1CCC[N+]1=c1sccs1.[Cl-] (centres unmarked)
2. CCOC(=O)C[N+](C)=c1sccs1.[Cl-]

-- reply
1673
3190
